// reported exon inclusion enrichment index per item
B1: mRNA-splicing (parent)
chain: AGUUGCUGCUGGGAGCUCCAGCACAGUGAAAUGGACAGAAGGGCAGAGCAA

Variants of: B1
procedure-text: exon inclusion enrichment index; higher = more inclusion; WT1 exon 5 minigene, HEK293
Give the figure by itself; no unit, no explanation.

Sample records with exon inclusion enrichment index:
- residues: "AGUUCACACAGGGAGCUCCAGCGAAGUGAAAUGGACAGAAGGGCAGAGCAA [G5C C6A U7C G8A U10A A23G C24A]"
  exon inclusion enrichment index: 0.48
- residues: "AGUUAGGGAUGGGAGCUCCAGCACAGUGAGAUGGACAGAAGGGCAGAGCAA [G5A C6G U7G C9A A30G]"
  exon inclusion enrichment index: 0.00525
- residues: "AGUUACCACCGGGAGCUCCAGCACAGUGAAAUGGAAAGAAGGGCAGAGCAA [G5A U7C G8A U10C C36A]"
  exon inclusion enrichment index: 1.85
- residues: "AGUUCUUCUCGGGAGCUCCAGCACAGUGAAAUGUGCAGAAGGGCAGAGCAA [G5C C6U G8C C9U U10C G34U A35G]"
  exon inclusion enrichment index: 0.537
- residues: "AGUUCGCGCCGGGAGCUCCAGCACAGUGAAAUGGACCGAAGGGCAGAGCAA [G5C C6G U7C U10C A37C]"
  exon inclusion enrichment index: 4.16

Prompt line: If you can, please state the reported exon inclusion enrichment index value of AGUUGCUGCUGGGAGCUCCAGCACAGUGAAAUGGACAGAAGGGUCGAGCAA [C44U A45C] .
Response line: 0.266

Prompt line: AGUUCACACAGGGAGCUCCAGCACAGUGAAAUGGACAGAAGUCCAGAGCAA [G5C C6A U7C G8A U10A G42U G43C] , same question.
Response line: 0.0644

Prompt line: Also, AGUUGACGACGGGAGCUCCAGCACAGUGAAAUGGCCAGAAGGGCAGAGCAA [C6A U7C C9A U10C A35C] please.
Response line: 1.54

Prompt line: AGUUCGCGCCGGGAGCUCCAGCACAGUGAAAUGGACAGAAGGGCAGAACAA [G5C C6G U7C U10C G48A] , same question.
Response line: 4.29
